test: photoluminescence quantum yield (fraction); solvent given as SMILES; settings: in CCOC(C)=O
Property: photoluminescence quantum yield; scope: individual compounds

{"Compound": "COC(=O)C(Cc1ccc2oc(-c3ccc4c(c3)c3ccccc3n4-c3ccccc3)nc2c1)NC(=O)OC(C)(C)C (stereo unspecified)", "photoluminescence quantum yield": 0.96}
{"Compound": "CCN(CC)c1ccc2cc(-c3cc(SC)c(C#N)c(=O)o3)c(=O)oc2c1", "photoluminescence quantum yield": 0.8}
{"Compound": "CCN(CC)c1ccc2cc(/C=C/C3=CC(/C=C/c4cc5ccc(N(CC)CC)cc5oc4=O)=[O+][B-](F)(F)O3)c(=O)oc2c1", "photoluminescence quantum yield": 0.418}
{"Compound": "c1ccc(Nc2nc(Nc3ccccc3)nc(Nc3ccc4cc5ccccc5cc4c3)n2)cc1", "photoluminescence quantum yield": 0.3}
{"Compound": "CCn1c2ccccc2c2cc(-c3cc(-c4ccc5c(c4)c4ccccc4n5CC)nc(OC)n3)ccc21", "photoluminescence quantum yield": 0.76}
{"Compound": "CSc1cc(-c2cc3cc4c5c(c3oc2=O)CCCN5CCC4)oc(=O)c1C#N", "photoluminescence quantum yield": 0.67}
{"Compound": "Cc1ccc(C2=C3C=CC(c4ccccc4)=[N+]3[B-](F)(F)n3c2ccc3-c2ccccc2)cc1", "photoluminescence quantum yield": 0.2}
{"Compound": "CCCCCCCCCCCCCCCCOc1cc(C#Cc2ccc3ccccc3c2)c(OCCCCCCCCCCCCCCCC)cc1C#Cc1ccc(C=C(C#N)C#N)cc1", "photoluminescence quantum yield": 0.23}
{"Compound": "CCn1c2ccsc2c2c3nsnc3c3c4sccc4n(CC)c3c21", "photoluminescence quantum yield": 0.63}
{"Compound": "O=Cc1cc2c(cc3ccc4cccc5ccc2c3c45)[nH]1", "photoluminescence quantum yield": 0.61}
{"Compound": "CCCCCCCCCCCCOc1ccc(C#CC(C#Cc2ccc(OCCCCCCCCCCCC)cc2)=Cc2cc(C=C(C#Cc3ccc(OCCCCCCCCCCCC)cc3)C#Cc3ccc(OCCCCCCCCCCCC)cc3)cc(C=C(C#Cc3ccc(OCCCCCCCCCCCC)cc3)C#Cc3ccc(OCCCCCCCCCCCC)cc3)c2)cc1", "photoluminescence quantum yield": 0.35}
{"Compound": "COc1ccc2n1[B-](F)(F)[N+]1=CC=CC1=C2c1ccccc1", "photoluminescence quantum yield": 0.01}
{"Compound": "NS(=O)(=O)c1ccc(N2N=C(c3ccc(O)cc3)CC2c2ccccc2)cc1 (stereo unspecified)", "photoluminescence quantum yield": 0.66}
{"Compound": "CC1=[N+]2C(=C(Oc3ccccc3)c3ccc(C)n3[B-]2(F)F)C=C1c1cc2n(c1)[B-](F)(F)[N+]1=CC=CC1=C2c1c(C)cc(C)cc1C", "photoluminescence quantum yield": 0.16}
{"Compound": "CCCSc1ccc2n1[B-](F)(F)[N+]1=C(SC#N)C=CC1=C2c1ccccc1", "photoluminescence quantum yield": 0.2}
{"Compound": "CCCCCCCCC1(CCCCCCCC)c2cc(-c3ccc(C(F)(F)F)cc3)ccc2-c2ccc(N(c3ccc(-n4c5ccccc5c5ccccc54)cc3)c3ccc4c(c3)C(CCCCCCCC)(CCCCCCCC)c3cc(-c5ccc(C(F)(F)F)cc5)ccc3-4)cc21", "photoluminescence quantum yield": 0.54}

* * *

test: photoluminescence quantum yield (fraction); solvent given as SMILES; details: in CN(C)C=O

{"Compound": "NCCCCCCCCCCCCN1C(=O)c2ccc3c4ccc5c6c(ccc(c7ccc(c2c37)C1=O)c64)C(=O)N(CCCCCCCCCCCCN)C5=O", "photoluminescence quantum yield": 0.83}
{"Compound": "CC[N+]1(CC)CN2C(C)=CC(C)=C(C(=O)O)C2=N1", "photoluminescence quantum yield": 0.056}
{"Compound": "O=C([O-])c1ccc2cc3cc(C(=O)[O-])ccc3cc2c1", "photoluminescence quantum yield": 0.11}
{"Compound": "O=C1NC(=O)c2ccc3c4ccc5c6c(ccc(c7ccc1c2c73)c64)C(=O)N(c1ccc(O)cc1)C5=O", "photoluminescence quantum yield": 0.15}
{"Compound": "CCCCCCCCC1(CCCCCCCC)c2cc(C#CC#Cc3ccc(N(c4ccccc4)c4ccccc4)cc3)ccc2-c2ccc(C=O)cc21", "photoluminescence quantum yield": 0.16}
{"Compound": "CN(C)c1ccc2nc(/C=C/c3cc4c5c(c3)CCCN5CCC4)c(=O)oc2c1", "photoluminescence quantum yield": 0.036}
{"Compound": "NS(=O)(=O)c1ccc(N2N=C(c3ccc(O)cc3)CC2c2ccc(F)cc2)cc1 (centres undefined)", "photoluminescence quantum yield": 0.89}
{"Compound": "CC1(C)CCc2c(c3ccccc3c3nc4ccccc4nc23)O1", "photoluminescence quantum yield": 0.13}
{"Compound": "COc1cc(-c2nc3c4cccnc4c4ncccc4c3[nH]2)c(OC)cc1/C=C/c1ccncc1", "photoluminescence quantum yield": 0.59}

* * *

Let's look at some molecules and their measured photoluminescence quantum yield.
assay: photoluminescence quantum yield (fraction); solvent given as SMILES; settings: in ClCCl

{"Molecule": "COc1ccc(/C=C/c2cc(/C=C/c3ccc(OC)cc3)nc(/C=C/c3ccc(N(c4ccccc4)c4ccccc4)cc3)n2)cc1", "photoluminescence quantum yield": 0.1}
{"Molecule": "COC(=O)C(Cc1ccc2oc(-c3ccc(N(c4ccccc4)c4ccccc4)cc3)nc2c1)NC(=O)OC(C)(C)C (stereo not drawn)", "photoluminescence quantum yield": 0.87}
{"Molecule": "CCC1(CC)c2cc(/C=C/c3cc(C#N)c(/C=C/c4ccc5c(c4)C(CC)(CC)c4cc(N6c7ccccc7Sc7ccccc76)ccc4-5)cc3C#N)ccc2-c2ccc(N3c4ccccc4Sc4ccccc43)cc21", "photoluminescence quantum yield": 0.01}

* * *

assay: photoluminescence quantum yield (fraction); solvent given as SMILES; conditions: in ClCCl
Outcome label depends on photoluminescence quantum yield relative to 0.3: at/above gives 1 (yes), below gives 0 (no).

{"Compound": "C(=C\\c1ccc(/C=C/c2ccc(N(c3ccccc3)c3ccccc3)cc2)c2nsnc12)/c1ccc(N(c2ccccc2)c2ccccc2)cc1", "Class assignment": "0 (no)"}
{"Compound": "CCC(CC)COC1=CC2=C3c4cc(OCC(CC)CC)c(-c5cccs5)n4[B-](F)(F)[n+]4c3n(c3cc(C(C)(C)C)ccc34)[B-](F)(F)[N+]2=C1c1cccs1", "Class assignment": "0 (no)"}
{"Compound": "Cc1ccc(C#Cc2ccc3ccc4cccc5ccc2c3c45)cc1", "Class assignment": "1 (yes)"}
{"Compound": "c1ccc2c(c1)c1ccccc1c1[nH]c(-c3ccc(-c4nc5c6ccccc6c6ccccc6c5[nH]4)cc3)nc21", "Class assignment": "1 (yes)"}
{"Compound": "CCCCc1cc(CCCC)c2ccc3c(CCCC)cc(CCCC)c4ccc1c2c43", "Class assignment": "1 (yes)"}
{"Compound": "C(#Cc1cc(C#Cc2ccccc2)c(C#Cc2ccccc2)c(C#Cc2ccccc2)c1C#Cc1ccccc1)c1ccccc1", "Class assignment": "0 (no)"}
{"Compound": "CSc1ccc(/C=C/c2ccncn2)cc1", "Class assignment": "0 (no)"}
{"Compound": "N#Cc1ccc(C#Cc2ncc(-c3ccccc3)o2)cc1", "Class assignment": "0 (no)"}
{"Compound": "CC(C)(C)c1ccc2c(c1)c1cc(C(C)(C)C)ccc1n2-c1ccc(N(c2ccc(-c3ccc(-c4ccc(-c5ccc(-c6ccc(-c7ccc(N(c8ccc(-n9c%10ccc(C(C)(C)C)cc%10c%10cc(C(C)(C)C)ccc%109)cc8)c8ccc(-n9c%10ccc(C(C)(C)C)cc%10c%10cc(C(C)(C)C)ccc%109)cc8)cc7)s6)s5)s4)s3)cc2)c2ccc(-n3c4ccc(C(C)(C)C)cc4c4cc(C(C)(C)C)ccc43)cc2)cc1", "Class assignment": "0 (no)"}
{"Compound": "Cc1ccc2ccc3c(C)ccc4ccc1c2c43", "Class assignment": "1 (yes)"}
{"Compound": "C(=C\\c1cccc2ccccc12)/c1ncc(-c2ccccc2)o1", "Class assignment": "1 (yes)"}
{"Compound": "O=P1(c2ccccc2)c2cccc3c4ccccc4c4ccc1n4c23 (stereo unspecified)", "Class assignment": "0 (no)"}
{"Compound": "CCn1c2ccccc2c2cc(C#Cc3cc(C#Cc4ccc5c(c4)c4ccccc4n5CC)nc(SC)n3)ccc21", "Class assignment": "1 (yes)"}
{"Compound": "CCN(CC)c1ccc2c(c1)oc(=O)c1c(C)nc3c(c(-c4ccccc4)nn3-c3ccccc3)c12", "Class assignment": "1 (yes)"}
{"Compound": "COc1ccc2c(c1)[nH]c1c3[nH]c4cc(OC)ccc4c3c3nsnc3c21", "Class assignment": "1 (yes)"}
{"Compound": "COc1ccc(-c2ccc(C(=O)NC(C)(C)C)c3c2ccc2c4ccccc4c4ccccc4c23)cc1", "Class assignment": "0 (no)"}

* * *

experiment: photoluminescence quantum yield (fraction); solvent given as SMILES; settings: in C1CCOC1
Overview of reported photoluminescence quantum yield across a group of compounds:
Measured attribute: photoluminescence quantum yield

{"Compound": "CCC(CC)COC1=CC2=C3c4cc(OCC(CC)CC)c(-c5cccs5)n4[B-](F)(F)[n+]4c3n(c3cc(C(C)(C)C)ccc34)[B-](F)(F)[N+]2=C1c1cccs1", "Measured attribute": "photoluminescence quantum yield", "Assay value": 0.07}
{"Compound": "CC(C)(C)c1ccc(C2=C(c3ccc(-n4c5ccc(C(C)(C)C)cc5c5cc(C(C)(C)C)ccc54)cc3)S(=O)(=O)c3c2sc(-c2ccc(-n4c5ccc(C(C)(C)C)cc5c5cc(C(C)(C)C)ccc54)cc2)c3-c2ccc(C(C)(C)C)cc2)cc1", "Measured attribute": "photoluminescence quantum yield", "Assay value": 0.164}
{"Compound": "C1=C2c3cc4ccccc4cc3C3=[N+]2[B-]2(Oc4ccccc43)Oc3ccccc3-c3c4cc5ccccc5cc4c1n32 (stereo not drawn)", "Measured attribute": "photoluminescence quantum yield", "Assay value": 0.013}
